MEASURED_ON: human insulin receptor (INSR) on CHOK1 cells (human, UniProt P06213 28-1382)
METHOD_DESCRIPTION: cell-based or functional assay
Collected EC50 (nM), pAKT signaling assay values appear next to each entry.
Give a bare numeral; the unit nM is implied.

Known EC50 (nM), pAKT signaling assay results, listed for orientation:
XPA.15.247.2.018 Fab (Fab, V domains shown, Monomeric Fab; also called XPA.247.2.018) VH: EVQLVETGGGVVQPGRSLRLSCAASGFTFSSYAMHWVRQAPGKGLEWVAVISYSGSNKYYADSVKGRFTISRDNSKNTLYLQMNSLRAEDTAVYYCARHEWGFGFDYWGQGTTVTVSS VL: DVVMTQSPLSLPVTLGQPASISCRSSQSLVYGDGNTYLNWFQQRPGQSPRRLIYKVSNRDSGVPDRFSGSGSGTEFTLKISRVEAEDVGVYFCMQGTYWPGTFGGGTKLEIKR
3.3
XPA.15.247.2.011 Fab (Fab, V domains shown, Fab; also called XPA.15.247.011) VH: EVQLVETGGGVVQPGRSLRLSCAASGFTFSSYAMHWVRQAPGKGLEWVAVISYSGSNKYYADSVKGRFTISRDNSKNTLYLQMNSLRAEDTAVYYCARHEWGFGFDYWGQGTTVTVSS VL: DVVMTQSPLSLPVTLGQPASISCRSSHSLVYGDGNTYLNWFHQRPGQSPRRLIYKVSNRDSGVPDRFAGSGSGTDFTLKISRVEADDFGVFYCMQGTHWPYTFGQGTKLEIKR
5

Suppose we examine the binder XPA.15.247.2.014 IgG (antibody, V domains shown, Tested as IgG; also called XPA.15.247.014) VH: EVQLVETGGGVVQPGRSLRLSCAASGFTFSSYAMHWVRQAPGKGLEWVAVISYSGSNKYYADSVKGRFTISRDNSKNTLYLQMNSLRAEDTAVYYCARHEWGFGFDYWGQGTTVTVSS VL: DVVMTQSPLSLPVTLGQPASISCRSSQSLVYGDGNTYLNWFQQRPGQSPRRLIYKVSKRDSGVPDRFSGSGSGTDFTLKISRVEAEDVGVYYCMQGTYWPMTFGGGTKLEIKR ; what EC50 (nM), pAKT signaling assay value has been reported?
2.1
